Sourced from patent US7517909B2

Field: affinity to the α2δ protein. Provide a value for each of the compounds that follow.
# target.entity: α2δ-subunit of a calcium channel (Sus scrofa, UniProt A0A287BIN3)
# Construct: the α2δ-subunit derived from porcine brain tissue was used; from tissue; host or cells: porcine brain tissue
# Sequence (A0A287BIN3 25-1109): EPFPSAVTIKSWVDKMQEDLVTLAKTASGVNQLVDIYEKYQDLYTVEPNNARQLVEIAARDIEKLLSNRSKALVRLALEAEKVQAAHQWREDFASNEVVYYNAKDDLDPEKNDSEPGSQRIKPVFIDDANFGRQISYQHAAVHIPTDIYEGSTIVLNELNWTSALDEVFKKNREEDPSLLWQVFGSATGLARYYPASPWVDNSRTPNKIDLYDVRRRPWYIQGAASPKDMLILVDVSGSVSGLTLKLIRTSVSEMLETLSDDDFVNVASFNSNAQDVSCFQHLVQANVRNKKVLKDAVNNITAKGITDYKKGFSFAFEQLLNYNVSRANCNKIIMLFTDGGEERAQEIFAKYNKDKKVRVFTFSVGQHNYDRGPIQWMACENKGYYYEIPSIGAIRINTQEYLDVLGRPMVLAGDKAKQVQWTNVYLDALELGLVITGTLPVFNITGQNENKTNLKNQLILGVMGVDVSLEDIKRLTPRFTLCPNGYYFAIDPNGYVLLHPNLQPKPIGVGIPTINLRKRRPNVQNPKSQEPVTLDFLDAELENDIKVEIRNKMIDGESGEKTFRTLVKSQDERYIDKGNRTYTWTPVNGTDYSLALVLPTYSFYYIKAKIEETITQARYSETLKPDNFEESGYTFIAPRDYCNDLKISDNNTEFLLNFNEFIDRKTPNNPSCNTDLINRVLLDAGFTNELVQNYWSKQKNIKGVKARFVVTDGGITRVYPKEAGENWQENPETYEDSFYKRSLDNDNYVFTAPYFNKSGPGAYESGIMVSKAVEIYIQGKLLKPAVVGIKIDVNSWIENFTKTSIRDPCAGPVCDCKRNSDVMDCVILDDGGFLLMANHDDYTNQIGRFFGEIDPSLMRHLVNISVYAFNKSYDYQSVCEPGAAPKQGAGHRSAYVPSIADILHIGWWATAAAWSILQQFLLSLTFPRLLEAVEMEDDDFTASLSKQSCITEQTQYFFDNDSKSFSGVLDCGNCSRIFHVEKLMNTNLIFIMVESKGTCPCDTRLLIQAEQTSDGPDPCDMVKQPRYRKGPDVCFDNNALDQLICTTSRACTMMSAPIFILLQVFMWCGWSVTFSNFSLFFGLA
# experiment.notes: radioligand binding assay using [3H]-gabapentin
# applied.conditions: α2δ-subunit derived from porcine brain tissue
Kindly provide the numeric value in nM only, without the unit symbol.

Qu. Please give the measured affinity to the α2δ protein for this compound: CCCC(C)(C)CC(CN)C(=O)O.Cl (stereo not shown)
Ans. 83

Qu. Can you look up the measured affinity to the α2δ protein of "CCC[C@@H](C)C[C@H](CN)C(=O)O" for me?
Ans. 29

Qu. What measured affinity to the α2δ protein goes with CC(C)CCCC(C)C[C@@H](N)CC(=O)O (stereo partly shown) ?
Ans. 527

Qu. Recorded affinity to the α2δ protein for "CCC[C@H](C)C[C@H](N)CC(=O)O" , please?
Ans. 1000

----------
Counter-ions that a name gives are not always drawn.
Field: melting point. Provide a value for each of the compounds that follow.

Qu. // melting point lookup, key: "CCC[C@@H](C)C[C@H](N)CC(=O)O.Cl"
Ans. 142.5 to 142.7 °C

Qu. I have this compound here, CCC[C@@H](C)C[C@H](CN)C(=O)O (as salt: hydrochloride) , and I need its recorded melting point.
Ans. 226.3 to 228 °C

Qu. Give its melting point value. Item: CCCC(C)(C)CC(CN)C(=O)O.Cl (centres unmarked)
Ans. 229.5 to 231 °C

Qu. Which melting point is reported for this compound? CCCC(C)(C)C[C@H](N)CC(=O)O (as salt: hydrochloride)
Ans. 194.2 to 195.2 °C

Qu. Item CCCC[C@@H](C)C[C@H](N)CC(=O)O (as salt: hydrochloride) has what recorded melting point?
Ans. 142.5 to 143.3 °C
